Source listed as patent US20100222396A1.

- target_desc: human orexin 1 receptor (hOx1R) (Homo sapiens)
- Construct: expressed in transfected cells
- Sequence (O43613 1-425): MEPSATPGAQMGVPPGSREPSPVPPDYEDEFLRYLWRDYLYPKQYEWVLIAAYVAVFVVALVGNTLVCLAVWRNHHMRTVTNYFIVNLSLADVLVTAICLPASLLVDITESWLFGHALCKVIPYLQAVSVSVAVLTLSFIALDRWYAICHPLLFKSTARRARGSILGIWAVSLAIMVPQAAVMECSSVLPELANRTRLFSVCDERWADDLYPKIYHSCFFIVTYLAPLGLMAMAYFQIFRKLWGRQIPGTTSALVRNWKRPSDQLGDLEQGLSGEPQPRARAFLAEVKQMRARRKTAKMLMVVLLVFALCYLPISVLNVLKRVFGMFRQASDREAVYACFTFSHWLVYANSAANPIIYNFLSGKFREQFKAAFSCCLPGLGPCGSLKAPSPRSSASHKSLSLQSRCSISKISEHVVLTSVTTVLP
- experimental_details: Radioligand binding assay ([125I]orexin A competition), hOx1R
- reported_conditions: CHO or HEK cell membranes, 1 h room temperature
Each entry below carries its recorded Kd.

[
  {
    "smiles_representation": "CN(C(=O)c1cccc2c1OCCO2)[C@H](CCNC(=O)c1ccccn1)Cc1ccccc1",
    "Kd": "> 10 µM"
  },
  {
    "smiles_representation": "CN(C(=O)c1ccccc1)[C@@H](CCNC(=O)c1ccccn1)Cc1ccccc1",
    "Kd": "> 10 µM"
  },
  {
    "smiles_representation": "CN(C(=O)c1ccccc1)[C@H](CCNC(=O)c1ccnc2ccccc12)Cc1ccccc1",
    "Kd": "> 10 µM"
  },
  {
    "smiles_representation": "CN(C(=O)c1ccccc1)[C@H](CCNC(=O)c1ccccn1)Cc1ccc(F)cc1",
    "Kd": "> 10 µM"
  }
]

* * *

- target_desc: human orexin 1 receptor (hOx1R) (Homo sapiens, UniProt O43613)
- Construct: expressed in transfected cells
- experimental_details: Calcium accumulation in cells (FLIPR), antagonism of orexin A, hOx1R
- Type: cell-based
- reported_conditions: cells expressing human orexin 1 receptor; IC50 vs orexin A converted by Cheng and Prusoff correction
pKd: −log10 of the molar value.
endpoint: pKd

[
  {
    "compound": "CN(C(=O)c1cc(C(F)(F)F)cc(C(F)(F)F)c1)C(CCNC(=O)c1ccccn1)Cc1ccc(Cl)cc1 (centres unmarked)",
    "readout_number": 5.82
  },
  {
    "compound": "Cc1cc(F)cc(C(=O)N(C)[C@H](CCNC(=O)c2cccn2C)Cc2ccccc2)c1",
    "readout_number": 6.15
  },
  {
    "compound": "CN(C(=O)c1ccc(C(F)(F)F)cc1)[C@H](CCNC(=O)c1ccccn1)Cc1ccccc1",
    "readout_number": 5.72
  },
  {
    "compound": "COc1cc(Cl)cc(C(=O)N(C)[C@H](CCNC(=O)c2cccn2C)Cc2ccccc2)c1",
    "readout_number": 7.08
  },
  {
    "compound": "CCOc1cccc(C(=O)N(C)[C@H](CCNC(=O)c2cccn2C)Cc2ccccc2)c1",
    "readout_number": 6.16
  },
  {
    "compound": "CN(C(=O)c1cccc2ccccc12)[C@H](CCNC(=O)c1nc2ccccc2n1C)Cc1ccc(Cl)cc1",
    "readout_number": 6.91
  },
  {
    "compound": "CN(C(=O)c1ccc2ccccc2c1)[C@H](CCNC(=O)c1ccccn1)Cc1ccccc1",
    "readout_number": 7.15
  },
  {
    "compound": "CN(C(=O)c1ccccc1)[C@H](CCNC(=O)c1ccc2ccccc2n1)Cc1ccccc1",
    "readout_number": 5.35
  },
  {
    "compound": "CN(C(=O)c1ccc2cc[nH]c2c1)[C@H](CCNC(=O)c1ccccn1)Cc1ccccc1",
    "readout_number": 6.00
  },
  {
    "compound": "CN(C(=O)c1ccc2c(c1)OCC2)[C@H](CCNC(=O)c1cccn1C)Cc1ccccc1",
    "readout_number": 6.01
  },
  {
    "compound": "CN(C(=O)c1cc(C(F)(F)F)cc(C(F)(F)F)c1)[C@H](CCNC(=O)c1ccccn1)Cc1ccccc1",
    "readout_number": 6.29
  },
  {
    "compound": "CN(C(=O)c1ccc2c(c1)OCO2)[C@H](CCNC(=O)c1ccccn1)Cc1ccc(Cl)cc1",
    "readout_number": 6.00
  },
  {
    "compound": "COc1cccc(C(=O)N(C)[C@H](CCNC(=O)c2nc3ccccc3n2C)Cc2ccccc2)c1",
    "readout_number": 6.65
  },
  {
    "compound": "CN(C(=O)c1ccc2ccccc2c1)[C@H](CCNC(=O)c1nc2ccccc2n1C)Cc1ccc(Cl)cc1",
    "readout_number": 7.49
  },
  {
    "compound": "CN(C(=O)c1cccc(C(F)(F)F)c1)[C@H](CCNC(=O)c1ccccn1)Cc1ccccc1",
    "readout_number": 6.76
  },
  {
    "compound": "CN(C(=O)c1cccc2cc[nH]c12)[C@H](CCNC(=O)c1ccccn1)Cc1ccccc1",
    "readout_number": 7.46
  },
  {
    "compound": "CN(C(=O)c1ccc2occc2c1)[C@H](CCNC(=O)c1ccccn1)Cc1ccccc1",
    "readout_number": 6.38
  },
  {
    "compound": "CCCN(C(=O)c1cc(C(F)(F)F)cc(C(F)(F)F)c1)[C@H](CCNC(=O)c1ccccn1)Cc1ccccc1",
    "readout_number": 5.80
  },
  {
    "compound": "CN(C(=O)c1cccc2c1OCO2)[C@H](CCNC(=O)c1nc2ccccc2n1C)Cc1ccccc1",
    "readout_number": 5.95
  },
  {
    "compound": "CN(C(=O)c1ccccc1)[C@@H](Cc1ccccc1)[C@@H](O)CNC(=O)c1ccccn1",
    "readout_number": 5.46
  },
  {
    "compound": "CN(C(=O)c1cccc2c1OCC2)[C@H](CCNC(=O)c1ccccn1)Cc1ccccc1",
    "readout_number": 5.74
  },
  {
    "compound": "Cc1nc2sccn2c1C(=O)NCC[C@H](Cc1ccccc1)N(C)C(=O)c1ccccc1",
    "readout_number": 5.71
  },
  {
    "compound": "[2H]C([2H])(c1ccccc1)C(CCNC(=O)c1ccccn1)N(C)C(=O)c1ccc2c(c1)OCO2 (centres unmarked)",
    "readout_number": 5.76
  },
  {
    "compound": "CCOc1cc(OCC)cc(C(=O)N(C)[C@H](CCNC(=O)c2cccn2C)Cc2ccccc2)c1",
    "readout_number": 6.11
  },
  {
    "compound": "CN(C(=O)c1cccc2ccccc12)[C@H](CCNC(=O)c1nc2ccccc2n1C)Cc1ccc(F)cc1",
    "readout_number": 6.91
  },
  {
    "compound": "CCN(C(=O)c1cc(C(F)(F)F)cc(C(F)(F)F)c1)[C@H](CCNC(=O)c1ccccn1)Cc1ccccc1",
    "readout_number": 5.87
  }
]
